Recorded values, source ChEMBL document CHEMBL1143906.

assay: Clearance in rat at 1 mg/kg, iv; format: ADME, organism-based; parameters: dose 1 mg/kg, route intravenous; settings: in vivo
readout label: clearance (mL/min/kg)
Dear colleague, please return just the value in mL/min/kg, with no unit written.

Past entries and their recorded results:
CC(C)Cn1c2ccc(C(=O)c3sccc3Br)cc2c2c3c(c4c(c21)CCc1nn(C)cc1-4)C(=O)NC3; 138
CC(C)Cn1c2ccc(C(=O)c3cccs3)cc2c2c3c(c4c(c21)CCc1nn(C)cc1-4)C(=O)NC3; 2.36
CC(C)Cn1c2ccc(C(=O)c3sccc3Cl)cc2c2c3c(c4c(c21)CCc1nn(C)cc1-4)C(=O)NC3; 12

Then this compound:
query: Which clearance reading was recorded for the compound "Cc1ccsc1C(=O)c1ccc2c(c1)c1c3c(c4c(c1n2CC(C)C)CCc1nn(C)cc1-4)C(=O)NC3" ?
result: 72

* * *

assay: AUC in rat; format: ADME, organism-based; conditions: plasma
AUC for assorted compounds

CC(C)Cn1c2ccc(C(=O)c3sccc3Br)cc2c2c3c(c4c(c21)CCc1nn(C)cc1-4)C(=O)NC3; 123 ng·h/mL

Then this compound:
query: Which AUC reading was recorded for the compound "Cc1ccsc1C(=O)c1ccc2c(c1)c1c3c(c4c(c1n2CC(C)C)CCc1nn(C)cc1-4)C(=O)NC3" ?
result: 261 ng·h/mL

* * *

molecular target: Vascular endothelial growth factor receptor 2 (Mus musculus, UniProt P35918); test: Inhibition of mouse VEGFR2 autophosphorylation in NIH3T3 cell
Sequence (P35918 whole entry): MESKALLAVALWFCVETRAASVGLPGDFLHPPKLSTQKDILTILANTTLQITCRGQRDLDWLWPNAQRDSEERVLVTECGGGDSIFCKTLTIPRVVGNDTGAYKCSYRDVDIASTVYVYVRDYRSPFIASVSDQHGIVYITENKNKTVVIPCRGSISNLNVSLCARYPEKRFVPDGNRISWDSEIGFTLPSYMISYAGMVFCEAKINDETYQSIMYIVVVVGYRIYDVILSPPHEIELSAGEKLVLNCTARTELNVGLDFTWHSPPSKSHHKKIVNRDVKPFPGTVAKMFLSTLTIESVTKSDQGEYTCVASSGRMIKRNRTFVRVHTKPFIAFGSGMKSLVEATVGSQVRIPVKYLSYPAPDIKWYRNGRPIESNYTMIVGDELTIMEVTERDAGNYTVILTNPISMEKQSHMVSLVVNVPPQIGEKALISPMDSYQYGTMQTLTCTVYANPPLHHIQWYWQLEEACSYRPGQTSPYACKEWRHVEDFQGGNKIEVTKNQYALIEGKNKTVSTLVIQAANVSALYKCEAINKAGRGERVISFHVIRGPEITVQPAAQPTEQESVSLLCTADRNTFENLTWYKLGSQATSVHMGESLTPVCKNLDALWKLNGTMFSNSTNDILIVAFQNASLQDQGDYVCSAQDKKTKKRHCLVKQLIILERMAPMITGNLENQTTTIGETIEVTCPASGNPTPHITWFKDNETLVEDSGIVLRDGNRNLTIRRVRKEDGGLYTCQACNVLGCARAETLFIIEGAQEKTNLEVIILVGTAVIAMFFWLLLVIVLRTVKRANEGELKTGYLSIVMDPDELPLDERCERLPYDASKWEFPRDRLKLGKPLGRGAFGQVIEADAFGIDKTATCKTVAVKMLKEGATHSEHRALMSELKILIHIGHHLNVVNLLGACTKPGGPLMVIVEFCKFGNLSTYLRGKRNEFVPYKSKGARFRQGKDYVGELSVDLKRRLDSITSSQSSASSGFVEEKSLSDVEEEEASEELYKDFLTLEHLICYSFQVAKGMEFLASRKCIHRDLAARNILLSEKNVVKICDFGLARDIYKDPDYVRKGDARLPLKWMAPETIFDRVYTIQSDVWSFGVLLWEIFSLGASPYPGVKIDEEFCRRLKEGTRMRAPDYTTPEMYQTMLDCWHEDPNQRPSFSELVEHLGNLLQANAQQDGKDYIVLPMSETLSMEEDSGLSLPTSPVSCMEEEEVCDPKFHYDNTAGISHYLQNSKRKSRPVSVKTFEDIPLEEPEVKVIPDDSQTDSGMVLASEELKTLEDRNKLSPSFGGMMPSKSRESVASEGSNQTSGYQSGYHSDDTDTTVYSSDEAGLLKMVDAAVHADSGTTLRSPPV
IC50 for assorted molecules
Dear colleague, please return just the value in µM, with no unit written.

CC(C)Cn1c2ccc(C(=O)c3sccc3Cl)cc2c2c3c(c4c(c21)CCc1nn(C)cc1-4)C(=O)NC3; 0.01

Then this molecule:
query: Which IC50 reading was recorded for the molecule "CC(C)Cn1c2ccc(C(=O)c3cccs3)cc2c2c3c(c4c(c21)CCc1nn(C)cc1-4)C(=O)NC3" ?
result: 0.01

* * *

assay: Aqueous solubility at pH 7.4; format: physicochemical; settings: aqueous medium
readout label: solubility

CC(C)Cn1c2ccc(C(=O)c3cccs3)cc2c2c3c(c4c(c21)CCc1nn(C)cc1-4)C(=O)NC3; < 1 µg/mL

Then this compound:
query: Which solubility reading was recorded for the compound "CC(C)Cn1c2ccc(C(=O)c3sccc3Cl)cc2c2c3c(c4c(c21)CCc1nn(C)cc1-4)C(=O)NC3" ?
result: < 1 µg/mL

* * *

Vd for assorted compounds
assay: Volume of distribution in rat at 1 mg/kg, iv; type: ADME, organism-based; design: dose 1 mg/kg, route intravenous; conditions: in vivo
Please provide the amount together with its unit, number first.

CC(C)Cn1c2ccc(C(=O)c3sccc3Cl)cc2c2c3c(c4c(c21)CCc1nn(C)cc1-4)C(=O)NC3; 1.4 L/kg

Then this compound:
query: Which Vd reading was recorded for the compound "CC(C)Cn1c2ccc(C(=O)c3cccs3)cc2c2c3c(c4c(c21)CCc1nn(C)cc1-4)C(=O)NC3" ?
result: 0.52 L/kg

* * *

Cmax for assorted compounds
assay: Cmax in rat at 5 mg/kg, po; type: ADME, organism-based; parameters: dose 5 mg/kg, route oral; conditions: in vivo

CC(C)Cn1c2ccc(C(=O)c3sccc3Cl)cc2c2c3c(c4c(c21)CCc1nn(C)cc1-4)C(=O)NC3; 842 ng/mL

query: Which Cmax reading was recorded for the compound "CC(C)Cn1c2ccc(C(=O)c3cccs3)cc2c2c3c(c4c(c21)CCc1nn(C)cc1-4)C(=O)NC3" ?
result: 638 ng/mL

* * *

molecular target: Vascular endothelial growth factor receptor 2 (Homo sapiens, UniProt P35968)
Sequence (P35968 whole entry): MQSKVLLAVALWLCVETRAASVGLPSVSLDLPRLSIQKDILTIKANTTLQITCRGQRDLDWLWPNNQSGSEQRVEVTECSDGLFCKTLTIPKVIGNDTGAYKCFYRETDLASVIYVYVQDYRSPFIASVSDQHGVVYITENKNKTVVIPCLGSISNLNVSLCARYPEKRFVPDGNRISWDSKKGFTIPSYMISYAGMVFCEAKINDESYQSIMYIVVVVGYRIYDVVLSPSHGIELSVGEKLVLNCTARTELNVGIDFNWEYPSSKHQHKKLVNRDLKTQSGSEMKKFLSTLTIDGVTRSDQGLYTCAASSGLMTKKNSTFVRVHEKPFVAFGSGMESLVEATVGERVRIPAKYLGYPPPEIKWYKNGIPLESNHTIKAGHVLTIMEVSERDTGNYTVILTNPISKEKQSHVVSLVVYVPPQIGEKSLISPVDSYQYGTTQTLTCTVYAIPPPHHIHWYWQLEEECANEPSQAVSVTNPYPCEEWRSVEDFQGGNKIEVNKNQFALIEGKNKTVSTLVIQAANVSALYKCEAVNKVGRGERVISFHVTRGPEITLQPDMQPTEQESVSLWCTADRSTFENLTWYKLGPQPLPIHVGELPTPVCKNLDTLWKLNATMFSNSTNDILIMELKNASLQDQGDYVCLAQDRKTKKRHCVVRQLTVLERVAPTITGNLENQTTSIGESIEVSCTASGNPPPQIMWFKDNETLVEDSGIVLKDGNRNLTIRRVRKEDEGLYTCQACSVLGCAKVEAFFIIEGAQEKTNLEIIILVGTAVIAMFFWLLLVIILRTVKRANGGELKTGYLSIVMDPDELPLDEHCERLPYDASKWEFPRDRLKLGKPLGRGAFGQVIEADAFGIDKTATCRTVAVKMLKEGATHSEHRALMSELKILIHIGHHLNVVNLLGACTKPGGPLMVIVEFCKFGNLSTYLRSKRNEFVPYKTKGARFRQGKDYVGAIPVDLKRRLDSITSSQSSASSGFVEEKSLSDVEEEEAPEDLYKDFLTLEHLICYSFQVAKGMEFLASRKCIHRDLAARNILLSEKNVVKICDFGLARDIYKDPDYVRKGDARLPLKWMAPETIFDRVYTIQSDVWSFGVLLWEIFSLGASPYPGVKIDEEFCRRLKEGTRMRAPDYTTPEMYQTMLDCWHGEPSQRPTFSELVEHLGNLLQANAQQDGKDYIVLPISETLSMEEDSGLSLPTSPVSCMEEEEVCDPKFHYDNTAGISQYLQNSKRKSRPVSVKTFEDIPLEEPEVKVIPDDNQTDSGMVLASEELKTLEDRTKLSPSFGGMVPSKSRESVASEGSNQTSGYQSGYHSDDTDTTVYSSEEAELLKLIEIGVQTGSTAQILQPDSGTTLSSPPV
IC50 for assorted compounds
Please provide the amount together with its unit, number first.

Cn1cc2c(n1)CCc1c-2c2c(c3c1[nH]c1ccc(C(=O)c4cccs4)cc13)CNC2=O; 2 nM
CC(C)Cn1c2ccc(C(=O)c3sccc3Br)cc2c2c3c(c4c(c21)CCc1nn(C)cc1-4)C(=O)NC3; 25 nM
CC(C)Cn1c2ccc(C(=O)c3ccsc3)cc2c2c3c(c4c(c21)CCc1nn(C)cc1-4)C(=O)NC3; 13 nM

Then this compound:
query: Which IC50 reading was recorded for the compound "CC(C)n1c2ccc(C(=O)c3cccs3)cc2c2c3c(c4c(c21)CCc1nn(C)cc1-4)C(=O)NC3" ?
result: 15 nM

* * *

Reported IC50 values, Vascular endothelial growth factor receptor 2 (Homo sapiens, UniProt P35968).
Dear colleague, please return just the value in nM, with no unit written.

CCCCn1c2ccc(C(C)=O)cc2c2c3c(c4c(c21)CCc1nn(C)cc1-4)C(=O)NC3; 26
CCCn1c2ccc(C(=O)c3cccs3)cc2c2c3c(c4c(c21)CCc1nn(C)cc1-4)C(=O)NC3; 5
CCn1c2ccc(C(=O)c3cccs3)cc2c2c3c(c4c(c21)CCc1nn(C)cc1-4)C(=O)NC3; 1
CC(=O)c1ccc2c(c1)c1c3c(c4c(c1n2C)CCc1nn(C)cc1-4)C(=O)NC3; 10

Then this molecule:
query: Under Vascular endothelial growth factor receptor 2 (Homo sapiens, UniProt P35968): IC50 value of "Cn1cc2c(n1)CCc1c-2c2c(c3c1[nH]c1ccccc13)CNC2=O" ?
result: 16

* * *

Reported log10(IC50) values, Angiopoietin-1 receptor (Homo sapiens).
// stored as log10 of IC50 expressed in nM

Cn1cc2c(n1)CCc1c-2c2c(c3c1[nH]c1ccccc13)CNC2=O; 3.13
CC(C)Cn1c2ccc(C(=O)c3sccc3Br)cc2c2c3c(c4c(c21)CCc1nn(C)cc1-4)C(=O)NC3; 1.18
CC(C)OCc1ccc2c(c1)c1c3c(c4c(c1n2CCCOC(=O)CN(C)C)Cc1ccccc1-4)C(=O)NC3; 3.13
CC(C)Cn1c2ccc(C(=O)c3ccsc3)cc2c2c3c(c4c(c21)CCc1nn(C)cc1-4)C(=O)NC3; 1.80
CC(C)Cn1c2ccc(C(=O)c3cccs3)cc2c2c3c(c4c(c21)CCc1nn(C)cc1-4)C(=O)NC3; 1.30

query: Which log10(IC50) reading was recorded for the compound "CC(=O)c1ccc2c(c1)c1c3c(c4c(c1n2CC(C)C)CCc1nn(C)cc1-4)C(=O)NC3" ?
result: 1.92

query: Lookup "CCn1c2ccccc2c2c3c(c4c(c21)CCc1nn(C)cc1-4)C(=O)NC3"
result: 3.04

query: Lookup "Cn1cc2c(n1)CCc1c-2c2c(c3c1[nH]c1ccc(C(=O)c4cccs4)cc13)CNC2=O"
result: 2.13

query: Lookup "CCCn1c2ccc(C(=O)c3cccs3)cc2c2c3c(c4c(c21)CCc1nn(C)cc1-4)C(=O)NC3"
result: 1.41

query: Lookup "Cc1ccsc1C(=O)c1ccc2c(c1)c1c3c(c4c(c1n2CC(C)C)CCc1nn(C)cc1-4)C(=O)NC3"
result: 0.70

query: Lookup "CCCCn1c2ccc(C(C)=O)cc2c2c3c(c4c(c21)CCc1nn(C)cc1-4)C(=O)NC3"
result: 2.48

* * *

experiment: AUC (0 to t) in rat at 1 mg/kg, iv; format: ADME, organism-based; design: dose 1 mg/kg, route intravenous; conditions: plasma
readout label: AUC(0-t) (µg·h/mL)
Dear colleague, please return just the value in µg·h/mL, with no unit written.

query: Which AUC(0-t) reading was recorded for the compound "CC(C)Cn1c2ccc(C(=O)c3sccc3Cl)cc2c2c3c(c4c(c21)CCc1nn(C)cc1-4)C(=O)NC3" ?
result: 1.44

query: Lookup "CC(C)Cn1c2ccc(C(=O)c3cccs3)cc2c2c3c(c4c(c21)CCc1nn(C)cc1-4)C(=O)NC3"
result: 5.68

* * *

molecular target: Vascular endothelial growth factor receptor 2 (Homo sapiens, UniProt P35968)
# label = met if IC50 < 20 nM else not met

Here's what some known entries look like.
CC(C)Cn1c2ccc(C(=O)c3sccc3Cl)cc2c2c3c(c4c(c21)CCc1nn(C)cc1-4)C(=O)NC3; met
CC(=O)c1ccc2[nH]c3c4c(c5c(c3c2c1)CNC5=O)-c1cn(C)nc1CC4; not met
CC(C)OCc1ccc2c(c1)c1c3c(c4c(c1n2CCCOC(=O)CN(C)C)Cc1ccccc1-4)C(=O)NC3 [CEP-7055]; met
CCn1c2ccccc2c2c3c(c4c(c21)CCc1nn(C)cc1-4)C(=O)NC3; met

# input for lookup
query: Would you kindly verify if IC50 of "CC(C)Cn1c2ccccc2c2c3c(c4c(c21)CCc1nn(C)cc1-4)C(=O)NC3" is strictly less than 20 nM?
result: met

* * *

test: AUC (0 to infinity) in rat at 1 mg/kg, iv; format: ADME, organism-based; parameters: time infinity, dose 1 mg/kg, route intravenous; settings: plasma
AUC(0-inf) for assorted molecules
Dear colleague, please return just the value in ng·h/mL, with no unit written.

CC(C)Cn1c2ccc(C(=O)c3cccs3)cc2c2c3c(c4c(c21)CCc1nn(C)cc1-4)C(=O)NC3; 6650

Then this molecule:
query: Which AUC(0-inf) reading was recorded for the molecule "CC(C)Cn1c2ccc(C(=O)c3sccc3Cl)cc2c2c3c(c4c(c21)CCc1nn(C)cc1-4)C(=O)NC3" ?
result: 1490
